Entries and their pIC50 values follow.
# Tested on: P. falciparum 3D7 growth, pLDH absorbance
# assaySummary: blood-stage malaria parasite growth potency – strain 3D7, dose response (AID 2305)
# pIC50 = -log10(concentration in molar units)

Recorded pIC50, per entry:
CCc1c(C)nc(-n2nc(C)cc2NC(=O)c2cccc3ccccc23)[nH]c1=O ... 6.17
Cc1c(C)c2c(c(C)c1O)CC[C@@](C)(C(=O)N1CCC(CCN3CCC(c4c[nH]c5ccccc45)CC3)CC1)O2 ... 6.17
O=C(/C=C/c1ccc(Cl)c(Cl)c1)NCCCCCN1CCC(NC(=O)c2ccc([N+](=O)[O-])cc2)CC1 ... 6.17
Cc1cc(OCCCN2CCCCC2)ccc1NC(=O)COc1ccc(Cl)cc1C(=O)c1cc(Cl)cc(C#N)c1 ... 6.05
O=C(Nc1ccc(Br)cc1)N(CCN1CCOCC1)CC(O)COCc1ccc(Cl)c(Cl)c1 (stereo not drawn) ... 6.03
CCN(Cc1ccc(-c2ccc(C(F)(F)F)cc2)cc1)C(=O)Cn1c(SCc2cccc(F)c2F)cc(=O)c2cc(CN3CCCCC3)ccc21 ... 6.10

input: Quote pIC50 reported for Cc1cc(N)nc2ccc(CNCCc3ccccc3Br)cc12 please.
output: 6.92

input: Recall and state the measured pIC50 for CC(C)CN1C(=O)c2ccccc2C(C(=O)Nc2cccc(C#N)c2)C1c1cccs1 (stereo not drawn) .
output: 6.80

input: Identify pIC50 associated with the compound CON(CCCN(C)C)C(=N)N
output: 5.97

input: Please give the documented pIC50 of CCCCCCCCn1ccc(=N)cc1
output: 6.08

input: Return reported pIC50. Input compound: CC[C@H](NC(=O)c1c(CC2CCN(CC(C)=O)CC2)c(-c2ccccc2)nc2ccccc12)c1ccccc1
output: 6.42

input: Please give measured pIC50 of the following entry: Brc1ccc(Nc2nc(NCC3CCCO3)c3ccccc3n2)cc1 (stereo not drawn)
output: 6.24

input: Please indicate pIC50 recorded for Cc1ccc(C(=O)NC2CC2)cc1-c1ccc2c(cnn2S(=O)(=O)c2ccc(F)cc2)c1
output: 6.54
